Where do the numbers come from? From ChEMBL document CHEMBL1811769.

- Tested on: Priestia megaterium
- Test name: Antibacterial activity against Bacillus megaterium at 0.05 mg by agar diffusion method
- Format: functional
- Assay conditions: read-out: DIZ
Endpoint: zone of inhibition at 50 µg/disc (mm)
Numbers only here, please. The scale is mm.

The reported zone of inhibition at 50 µg/disc of the compound C=C1/C=C/[C@H](OC(C)=O)[C@@]2(C)[C@@H](OC(C)=O)[C@@H](OC(C)=O)[C@@H](OC(=O)CC(C)C)[C@]3(CO3)[C@@H]2[C@H](OC(C)=O)[C@]2(O)[C@@H](C)C(=O)O[C@H]2[C@H]1Cl [GEMMACOLIDE J] was 16

The reported zone of inhibition at 50 µg/disc of the compound CC(=O)N1CCN(c2ccc(OCC3COC(Cn4ccnc4)(c4ccc(Cl)cc4Cl)O3)cc2)CC1 (centres undefined) [KETOCONAZOLE] was 18

The reported zone of inhibition at 50 µg/disc of the compound CC1(C)S[C@@H]2[C@H](NC(=O)Cc3ccccc3)C(=O)N2[C@H]1C(=O)O [PENICILLIN G] was 26

The reported zone of inhibition at 50 µg/disc of the compound CN[C@@H]1[C@H](O[C@H]2[C@H](O[C@H]3[C@H](O)[C@@H](O)[C@H](N=C(N)N)[C@@H](O)[C@@H]3N=C(N)N)O[C@@H](C)[C@]2(O)C=O)O[C@@H](CO)[C@H](O)[C@H]1O [STREPTOMYCIN] was 11

====

- Tested on: Zymoseptoria tritici
- Test name: Antifungal activity against Septoria tritici at 0.05 mg by agar diffusion method
- Type: functional
Calls of active or inactive are those of the source. No cut-off for these calls is given here.

[
  {
    "Molecule": "C=C1/C=C/[C@H](OC(C)=O)[C@@]2(C)[C@@H](OC(C)=O)[C@@H](OC(=O)CC(C)C)[C@@H](OC(C)=O)[C@]3(CO3)[C@@H]2[C@H](OC(C)=O)[C@]2(O)[C@@H](C)C(=O)O[C@H]2[C@H]1Cl",
    "System tested": "Zymoseptoria tritici",
    "diameter of the inhibition zone (DIZ)": "inactive"
  },
  {
    "Molecule": "C=C1/C=C/[C@H](OC(C)=O)[C@@]2(C)[C@@H](OC(C)=O)CC[C@]3(CO3)[C@@H]2[C@H](OC(C)=O)[C@]2(O)[C@@H](C)C(=O)O[C@H]2[C@H]1Cl",
    "System tested": "Zymoseptoria tritici",
    "diameter of the inhibition zone (DIZ)": "inactive"
  },
  {
    "Molecule": "C=C1/C=C/[C@H](OC(C)=O)[C@@]2(C)[C@@H](OC(C)=O)C[C@@H](OC(C)=O)[C@]3(CO3)[C@@H]2[C@H](OC(C)=O)[C@]2(O)[C@@H](C)C(=O)O[C@H]2[C@H]1Cl [GEMMACOLIDE H]",
    "System tested": "Zymoseptoria tritici",
    "diameter of the inhibition zone (DIZ)": "inactive"
  }
]

====

- System: Zymoseptoria tritici
- Test name: Antifungal activity against Septoria tritici at 0.05 mg by agar diffusion method
- Type: functional
Activity calls are given as the source filed them. No cut-off for these calls is given here.
Endpoint: diameter of the inhibition zone (DIZ)

[
  {
    "Compound": "C=C1/C=C/[C@H](OC(C)=O)[C@@]2(C)[C@@H](OC(C)=O)[C@@H](OC(C)=O)[C@@H](OC(C)=O)[C@]3(CO3)[C@@H]2[C@H](OC(C)=O)[C@]2(O)[C@@H](C)C(=O)O[C@H]2[C@H]1Cl [GEMMACOLIDE G]",
    "Endpoint": "diameter of the inhibition zone (DIZ)",
    "Measurement": "inactive"
  },
  {
    "Compound": "C=C1/C=C/[C@H](OC(C)=O)[C@@]2(C)[C@@H](OC(C)=O)C[C@@H](OC(=O)CC(C)C)[C@]3(CO3)[C@@H]2[C@H](OC(C)=O)[C@]2(O)[C@@H](C)C(=O)O[C@H]2[C@H]1Cl [GEMMACOLIDE I]",
    "Endpoint": "diameter of the inhibition zone (DIZ)",
    "Measurement": "inactive"
  }
]
